target: Short transient receptor potential channel 6 (Mus musculus) (UniProt Q61143); assay: mouse TRPC6 channel inhibitors, primary screen, cell-based, HEK293, membrane potential dye (AID 2553); conditions: ACh-evoked depolarization, at 10 µM; stronger effect = lower value;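 on B-score: B-score derived from integrated fluorescence ratio over the kinetic read; more negative B-score means stronger inhibition of depolarization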
Sequence (Q61143 whole entry, looked up): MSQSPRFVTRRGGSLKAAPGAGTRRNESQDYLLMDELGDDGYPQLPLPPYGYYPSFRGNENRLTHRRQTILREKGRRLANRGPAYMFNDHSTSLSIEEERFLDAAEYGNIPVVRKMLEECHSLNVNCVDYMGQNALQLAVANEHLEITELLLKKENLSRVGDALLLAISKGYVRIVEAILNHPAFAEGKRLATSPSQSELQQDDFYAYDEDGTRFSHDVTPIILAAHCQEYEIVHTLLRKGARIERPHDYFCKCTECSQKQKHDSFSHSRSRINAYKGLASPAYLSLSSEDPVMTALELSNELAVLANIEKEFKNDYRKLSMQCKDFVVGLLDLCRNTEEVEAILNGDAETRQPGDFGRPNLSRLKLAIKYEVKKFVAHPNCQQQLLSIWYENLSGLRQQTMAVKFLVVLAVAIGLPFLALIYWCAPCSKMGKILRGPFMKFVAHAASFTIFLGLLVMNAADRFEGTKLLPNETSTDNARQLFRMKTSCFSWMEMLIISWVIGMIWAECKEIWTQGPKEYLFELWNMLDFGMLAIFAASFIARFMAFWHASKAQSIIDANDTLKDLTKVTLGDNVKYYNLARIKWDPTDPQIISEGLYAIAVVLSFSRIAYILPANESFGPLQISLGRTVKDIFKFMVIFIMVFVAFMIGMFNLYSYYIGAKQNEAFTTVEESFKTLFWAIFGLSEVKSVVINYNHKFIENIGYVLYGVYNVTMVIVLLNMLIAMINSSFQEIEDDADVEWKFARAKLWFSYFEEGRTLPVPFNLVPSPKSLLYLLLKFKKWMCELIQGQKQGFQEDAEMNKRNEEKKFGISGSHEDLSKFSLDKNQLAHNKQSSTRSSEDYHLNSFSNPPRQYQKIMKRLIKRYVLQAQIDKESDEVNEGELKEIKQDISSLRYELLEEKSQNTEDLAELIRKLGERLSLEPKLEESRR
Hit rate of the full screen: of about 310,000 compounds, about 3,300 (1.1%) were called active. Many of the other results were omitted from the sample, so actives are more common in it than they were.
OBSERVED_PROPERTY: B-score

Worked examples follow.
| COMPOUND | B-score |
| --- | --- |
| CC1=C2C(=O)C3C(CC=C4CC(OC5OC(O)C(O)C(O)C5CO)CCC43C)C2CCC12OC1CC(C)CNC1C2C (stereo not given) | inactive |
| CC1(C)Cc2c(C#N)c(N3CCNCC3)nc(-c3ccco3)c2CS1 | -5.98 (active) |
| CCOP(=S)(OCC)C(O)CCCCCn1c(=O)c(F)cn(C2CCCO2)c1=O (stereo not given) | inactive |
| Cc1nn(Cc2ccccc2Cl)c(Cl)c1C(=O)OC(C(=O)NC(N)=O)C(C)C (stereo not given) | inactive |

Consider now this further compound.
Given the compound CN1CCN(c2cc(N3CCNCC3)ccc2[N+](=O)[O-])CC1 , what is its reported B-score?
-9.48 (active)

* * *

target: Short transient receptor potential channel 6 (Mus musculus); assay: mouse TRPC6 channel inhibitors, primary screen, cell-based, HEK293, membrane potential dye (AID 2553); details: ACh-evoked depolarization, at 10 µM; stronger effect = lower value;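 on B-score: B-score derived from integrated fluorescence ratio over the kinetic read; more negative B-score means stronger inhibition of depolarization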
The campaign covered roughly 310,000 compounds. About 3,300 (1.1%) were called active. Many of the other results were omitted from the sample, so actives are more common in it than they were.
OBSERVED_PROPERTY: B-score

| COMPOUND | B-score |
| --- | --- |
| COc1c(O)ccc2c1-c1c3c(cc4c1C(C2)N(C)CC4)OCO3 (stereo unspecified) | inactive |
| CCCCCCCCCCCCn1ccc(=N)cc1 | -8.97 (active) |
| CC(Cc1ccccc1)NC=O (stereo unspecified) | inactive |
| N[C@@H](Cc1c[nH]c2ccccc12)c1nnc(SCc2c(F)cccc2Cl)o1 | inactive |
| c1ccc(C2NCc3ccccc3-n3cccc32)cc1 (stereo unspecified) | inactive |

Consider now this further compound.
Lab note: need B-score for CC(C)(C)[C@]1(O)C[C@@H]2OC(=O)C[C@@]23C(=O)O[C@@H]2OC(=O)[C@H](O)[C@]213 on Short transient receptor potential channel 6 (Mus musculus), anyone have it?
inactive

* * *

molecular target: Short transient receptor potential channel 6 (Mus musculus) (UniProt Q61143); assay: mouse TRPC6 channel inhibitors, primary screen, cell-based, HEK293, membrane potential dye (AID 2553); conditions: ACh-evoked depolarization, at 10 µM
The whole screen tested about 310,000 compounds, of which about 3,300 (1.1%) were called active.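 Rule for the calls: active = B-score under library mean minus 3 SD, initial fluorescence not abnormally high, positive integrated signal ratio; inactive = the rest.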 The entries come from a sample that favours actives as a whole.
Your reply should match one of these outcome classes. 1 = active, -1 = inactive

| MOLECULAR_STRING | TARGET | CAT |
| --- | --- | --- |
| Cc1nc2ccccn2c1P(=S)(N1CCCCC1)N1CCCCC1 | Short transient receptor potential channel 6 (Mus musculus) (UniProt Q61143) | -1 |

Entry CCCCCCN=C(CC)c1c(O)n(CCCC)c(=O)[nH]c1=O : call = ?
-1

Entry CC1=CC(=Cc2sc3ccccc3[n+]2C)C=C(C)O1 : call = ?
1

Entry NCCc1c[nH]c2ccc(O)cc12 : call = ?
-1

Entry CCOc1cccc(=NC2CCCCC2)c2c(C)[nH]c(C)c12 : call = ?
1

Entry Cc1nc2ccc(N3CCN(C)CC3)cc2nc1C : call = ?
-1

Entry CN1CCN(Cc2ccc(OC(F)(F)F)cc2)CC1 : call = ?
-1
